# credit: the supplement of paper PMC10883282

Tested on: SW684
experiment_notes: relative viability vs DMSO control (72 h) (fraction); higher = more viable cells
particulars: 0.01372 µM
readout_label: relative viability
Answers are plain numbers.

These solved cases illustrate the format of a correct answer.
[[record]]
chemical_structure = "CCN(c1cc(-c2ccc(CN3CCOCC3)cc2)cc(C(=O)NCc2c(C)cc(C)[nH]c2=O)c1C)C1CCOCC1"
meas_value = 1.12

[[record]]
chemical_structure = "CN1CCN(CCOc2cc(OC3CCOCC3)c3c(Nc4c(Cl)ccc5c4OCO5)ncnc3c2)CC1"
meas_value = 1.15


Report relative viability for every entry below.
1. COc1cc2ncnc(Nc3cccc(Cl)c3F)c2cc1OC(=O)N1CCN(C)C[C@H]1C
2. C1=N/C2=N/c3ccc(OCCN4CCCC4)c(c3)COC/C=C/COCc3cccc(c3)C(=C1)N2
3. Cc1cn(-c2cc(NC(=O)c3ccc(C)c(Nc4nccc(-c5cccnc5)n4)c3)cc(C(F)(F)F)c2)cn1
4. CCCS(=O)(=O)N[C@H]1C[C@@H](N(C)c2ncnc3[nH]ccc23)C1
5. COc1cc2ncnc(Nc3ccc(F)c(Cl)c3)c2cc1NC(=O)/C=C/CN1CCCCC1
6. COc1cc2nccc(Oc3ccc(NC(=O)NC4CC4)c(Cl)c3)c2cc1C(N)=O

Result string:
1: 1.15; 2: 1.15; 3: 1.07; 4: 1.12; 5: 1.18; 6: 1.13

====

Tested on: VA-ES-BJ
experiment_notes: relative viability vs DMSO control (72 h) (fraction); higher = more viable cells
particulars: 0.00457 µM
Kindly state relative viability for each of the entries shown.
One number for each entry.

[[record]]
chemical_structure = "Cc1nc(Nc2ncc(C(=O)Nc3c(C)cccc3Cl)s2)cc(N2CCN(CCO)CC2)n1"
readout_label = "relative viability"
meas_value = 0.996

[[record]]
chemical_structure = "C=CC(=O)Nc1cccc(Nc2nc(Nc3ccc(N4CCN(C(C)=O)CC4)cc3OC)ncc2C(F)(F)F)c1"
readout_label = "relative viability"
meas_value = 1.03


Report relative viability for every entry below.
1. Cc1cn(-c2cc(NC(=O)c3ccc(C)c(Nc4nccc(-c5cccnc5)n4)c3)cc(C(F)(F)F)c2)cn1
2. CC[C@@H]1C(=O)N(C)c2cnc(Nc3ccc(C(=O)N[C@H]4CC[C@H](N5CCN(CC6CC6)CC5)CC4)cc3OC)nc2N1C(C)C
3. C[C@@H]1COC(Nc2ccc3ncnc(Nc4ccc(OCc5nccs5)c(Cl)c4)c3c2)=N1
4. CNC(=O)c1cc(Oc2ccc(NC(=O)Nc3ccc(Cl)c(C(F)(F)F)c3)cc2)ccn1
5. Cc1c(F)cc(C(=O)NC2CC2)cc1-c1ccc(C(=O)NCC(C)(C)C)cn1

Result string:
1: 1.05; 2: 1.06; 3: 1.04; 4: 1.06; 5: 1.07

Report relative viability for every entry below.
1. COc1cc2ncnc(Nc3ccc(F)c(Cl)c3)c2cc1NC(=O)/C=C/CN1CCCCC1
2. CCCS(=O)(=O)N[C@H]1C[C@@H](N(C)c2ncnc3[nH]ccc23)C1
3. COc1cc2nccc(Oc3ccc(NC(=O)NC4CC4)c(Cl)c3)c2cc1C(N)=O

Result string:
1.09
1.03
1.1

Report relative viability for every entry below.
1. CO[C@@H]1[C@H](N(C)C(=O)c2ccccc2)C[C@H]2O[C@]1(C)n1c3ccccc3c3c4c(c5c6ccccc6n2c5c31)C(=O)NC4
2. FC(F)(F)c1ccc(CNc2ccc(Cc3c[nH]c4ncc(Cl)cc34)cn2)cn1

Result string:
1. 0.978
2. 1.06

Report relative viability for every entry below.
1. Cc1ccc(C(=O)OCc2ccc([C@@H](CN)C(=O)Nc3ccc4cnccc4c3)cc2)c(C)c1
2. COc1cc2ncnc(Nc3cccc(Cl)c3F)c2cc1OC(=O)N1CCN(C)C[C@H]1C
3. NC(=O)c1cccc2cn(-c3ccc([C@@H]4CCCNC4)cc3)nc12
4. NC(=O)c1cnc2[nH]ccc2c1N[C@@H]1[C@@H]2CC3C[C@H]1C[C@@](O)(C3)C2

Result string:
1. 1.02
2. 1.02
3. 0.96
4. 1.01

====

System: RD-ES
experiment_notes: relative viability vs DMSO control (72 h) (fraction); higher = more viable cells
particulars: 0.01372 µM
Kindly state relative viability for each of the entries shown.
Answers are plain numbers.

These solved cases illustrate the format of a correct answer.
[[record]]
compound = "CCN(c1cc(-c2ccc(CN3CCOCC3)cc2)cc(C(=O)NCc2c(C)cc(C)[nH]c2=O)c1C)C1CCOCC1 [Tazemetostat]"
readout_label = "relative viability"
meas_value = 0.968

[[record]]
compound = "C[C@H]1Oc2cc(cnc2N)-c2c(nn(C)c2C#N)CN(C)C(=O)c2ccc(F)cc21 [Lorlatinib]"
readout_label = "relative viability"
meas_value = 0.969


// field: relative viability; key: C[C@@H](Oc1cc(-c2cnn(C3CCNCC3)c2)cnc1N)c1c(Cl)ccc(F)c1Cl [Crizotinib] ; value = 0.963

====

Tested on: A204
experiment_notes: relative viability vs DMSO control (72 h) (fraction); higher = more viable cells
particulars: 0.00152 µM
readout_label: relative viability
Numbers only.

[[record]]
compound = "C[C@@H]1COC(Nc2ccc3ncnc(Nc4ccc(OCc5nccs5)c(Cl)c4)c3c2)=N1 [Varlitinib]"
readout_label = "relative viability"
meas_value = 1.07

[[record]]
compound = "NC(=O)c1cnc2[nH]ccc2c1N[C@@H]1[C@@H]2CC3C[C@H]1C[C@@](O)(C3)C2 [Peficitinib]"
readout_label = "relative viability"
meas_value = 1.07

[[record]]
compound = "Cc1cccc(-c2[nH]c(CNc3ccccc3F)nc2-c2ccc3ncnn3c2)n1 [Vactosertib]"
readout_label = "relative viability"
meas_value = 1.02

[[record]]
compound = "Cc1ccc(C(=O)OCc2ccc([C@@H](CN)C(=O)Nc3ccc4cnccc4c3)cc2)c(C)c1 [Netarsudil]"
readout_label = "relative viability"
meas_value = 1.04

[[record]]
compound = "C1=N/C2=N/c3ccc(OCCN4CCCC4)c(c3)COC/C=C/COCc3cccc(c3)C(=C1)N2 [Pacritinib]"
readout_label = "relative viability"
meas_value = 1.07


Report relative viability for every entry below.
1. C=CC(=O)Nc1cc(Nc2nccc(-c3cn(C)c4ccccc34)n2)c(OC)cc1N(C)CCN(C)C [Osimertinib]
2. Cc1ccc(NC(=O)c2ccc(CN3CCN(C)CC3)cc2)cc1Nc1nccc(-c2cccnc2)n1 [Imatinib]

Result string:
1.05
0.993

// field: relative viability; key: C#Cc1cccc(Nc2ncnc3cc(OCCOC)c(OCCOC)cc23)c1 [Erlotinib] ; value = 1.09

====

Test system: KHOS-240S
experiment_notes: relative viability vs DMSO control (72 h) (fraction); higher = more viable cells
particulars: 10 µM
readout_label: relative viability
Give bare numbers.

[[record]]
molecule = "CN1CCN(CCOc2cc(OC3CCOCC3)c3c(Nc4c(Cl)ccc5c4OCO5)ncnc3c2)CC1 [Saracatinib]"
readout_label = "relative viability"
meas_value = 0.451


Report relative viability for every entry below.
1. CCCS(=O)(=O)N[C@H]1C[C@@H](N(C)c2ncnc3[nH]ccc23)C1 [Abrocitinib]
2. NC(=O)c1cnc2[nH]ccc2c1N[C@@H]1[C@@H]2CC3C[C@H]1C[C@@](O)(C3)C2 [Peficitinib]
3. N#CCC1(n2cc(-c3ncnc4[nH]ccc34)cn2)CN(C2CCN(C(=O)c3ccnc(C(F)(F)F)c3F)CC2)C1 [Itacitinib]

Result string:
[0.988, 0.498, 0.923]

Report relative viability for every entry below.
1. Cc1cn(-c2cc(NC(=O)c3ccc(C)c(Nc4nccc(-c5cnccn5)n4)c3)cc(C(F)(F)F)c2)cn1 [Radotinib]
2. Cc1ccc(C(=O)OCc2ccc([C@@H](CN)C(=O)Nc3ccc4cnccc4c3)cc2)c(C)c1 [Netarsudil]
3. C[C@@H]1COC(Nc2ccc3ncnc(Nc4ccc(OCc5nccs5)c(Cl)c4)c3c2)=N1 [Varlitinib]

Result string:
1: 1.02; 2: 0.0141; 3: 0.849

====

Tested on: SW1353
experiment_notes: relative viability vs DMSO control (72 h) (fraction); higher = more viable cells
particulars: 0.00152 µM
Lab note: cut-off is 0.9. Strictly less in relative viability is rule met. Exactly 0.9 or more is rule not met.

Look over these answered cases.
[[record]]
chemical_structure = "NC(=O)c1cccc2cn(-c3ccc([C@@H]4CCCNC4)cc3)nc12"
target_of_assay = "SW1353"
assigned_category = "rule not met"

[[record]]
chemical_structure = "CCCS(=O)(=O)N[C@H]1C[C@@H](N(C)c2ncnc3[nH]ccc23)C1"
target_of_assay = "SW1353"
assigned_category = "rule not met"

[[record]]
chemical_structure = "C#Cc1cccc(Nc2ncnc3cc(OCCOC)c(OCCOC)cc23)c1"
target_of_assay = "SW1353"
assigned_category = "rule not met"

[[record]]
chemical_structure = "C[C@H]1Oc2cc(cnc2N)-c2c(nn(C)c2C#N)CN(C)C(=O)c2ccc(F)cc21"
target_of_assay = "SW1353"
assigned_category = "rule not met"

[[record]]
chemical_structure = "Cc1cn(-c2cc(NC(=O)c3ccc(C)c(Nc4nccc(-c5cnccn5)n4)c3)cc(C(F)(F)F)c2)cn1"
target_of_assay = "SW1353"
assigned_category = "rule not met"


Here is the next item to consider.
Query string: Quick check: does CO[C@H]1C[C@@H]2CC[C@@H](C)[C@@](O)(O2)C(=O)C(=O)N2CCCC[C@H]2C(=O)O[C@H]([C@H](C)C[C@@H]2CC[C@@H](O)[C@H](OC)C2)CC(=O)[C@H](C)/C=C(\C)[C@@H](O)[C@@H](OC)C(=O)[C@H](C)C[C@H](C)/C=C/C=C/C=C/1C have relative viability under 0.9?
Result string: rule met
